# target under test: Platelet-activating factor receptor (Oryctolagus cuniculus)
# assay notes: In vitro inhibitory activity against PAF receptor using [3H]PAF as radioligand in rabbit platelets
pIC50: −log10 of the molar value.

| compound | sign qualifier | pIC50 |
| --- | --- | --- |
| C=C1CCC2[C@@](C)(CO)CCC[C@]2(C)[C@H]1CC/C(=C/CO)CO (stereo partly specified) | = | 4.68 |
| COC(=O)[C@@]1(C)CCC[C@@]2(C)C1CC[C@]1(CO1)[C@@H]2CCC1=CCOC1=O (stereo partly specified) | = | 6.00 |
| C=C1CCC2[C@](C)(CCC[C@]2(C)C(=O)OC)[C@H]1CC/C(=C/CO)CO (stereo partly specified) | = | 4.92 |
| COC(=O)[C@@]1(C)CCC[C@@]2(C)C1CC[C@H](O)[C@@H]2CCC1=CCOC1=O (stereo partly specified) | = | 5.70 |
| COC(=O)[C@@]1(C)CCC[C@@]2(C)C1CC[C@H](CO)[C@@H]2CCC1=CCOC1=O (stereo partly specified) | = | 5.80 |
| COC(=O)[C@@]1(C)CCC[C@@]2(C)C1CCC(=O)[C@@H]2CCC1=CCOC1=O (stereo partly specified) | = | 6.59 |
| C=C1CCC2[C@](C)(CCC[C@]2(C)C(=O)OC)[C@H]1CCC1=CCOC1=O (stereo partly specified) | = | 6.60 |
| COC(=O)[C@@]1(C)CCC[C@@]2(C)C1CC[C@](O)(CO)[C@@H]2CCC1=CCOC1=O (stereo partly specified) | < | 3.00 |
| COC(=O)[C@@]1(C)CCC[C@@]2(C)C1CCC(=O)[C@@H]2CCC1CCOC1=O (stereo partly specified) | = | 5.59 |
| C=C1CCC2[C@](C)(CCC[C@]2(C)C(=O)OC)[C@H]1CCC1CCOC1=O (stereo partly specified) | = | 5.70 |
| C=C1CCC2[C@@](C)(CO)CCC[C@]2(C)[C@H]1CCC1=CC(=O)OC1 (stereo partly specified) | = | 3.96 |
